Tested on: pigweed
protocol_summary: Test A postemergence
Assay type: in vivo, Amaranthus retroflexus
assay_conditions: 125 g ai/ha, 0 to 100 scale where 0 is no effect and 100 is complete control
Would you please tag the item true (1) when its Pigweed plant response rating is 70 or above, and false (0) when it is below?

smiles_entry | label
O=Cc1cccc(Oc2ncc(Br)cn2)c1-n1cc(I)cn1 | false (0)
N#Cc1cnc(Oc2cccc(C=O)c2-n2cc(Br)cn2)nc1 | false (0)
Fc1cnc(Oc2cccc(F)c2-n2cc(OCC(F)(F)F)cn2)nc1 | true (1)
O=Cc1cccc(Oc2ncc(Br)cn2)c1-n1cc(C(F)(F)F)cn1 | false (0)
C=C(C)c1cccc(Oc2ncc(Cl)cn2)c1-n1cc(Br)cn1 | true (1)
N#Cc1cccc(Oc2ncc(Cl)cn2)c1-n1cc(I)cn1 | true (1)
Fc1cccc(Oc2ncc(Cl)cn2)c1-n1cc(I)cn1 | true (1)
Clc1cnc(Oc2cccc(Cl)c2-n2cc(Br)cn2)nc1 | true (1)
CS(=O)(=O)c1cccc(Oc2ncc(Cl)cn2)c1-n1cc(Br)cn1 | false (0)
N#Cc1cccc(Oc2ncc(Cl)cn2)c1-n1cc(Br)cn1 | true (1)
COc1cnc(Oc2cccc(C#N)c2-n2cc(Br)cn2)nc1 | true (1)
N#Cc1cc(F)cc(Oc2ncc(Br)cn2)c1-n1cc(Br)cn1 | true (1)
